List of OD450 values.
- assay-system: T1, human MSLN-FL-his protein (human, UniProt Q13421 296-580)
- T1 construct: also called hMSLN-FL-his; human MSLN full-length protein; not shown: His tag
- T1 sequence (Q13421 other isoform, or with tags, fused parts or gaps): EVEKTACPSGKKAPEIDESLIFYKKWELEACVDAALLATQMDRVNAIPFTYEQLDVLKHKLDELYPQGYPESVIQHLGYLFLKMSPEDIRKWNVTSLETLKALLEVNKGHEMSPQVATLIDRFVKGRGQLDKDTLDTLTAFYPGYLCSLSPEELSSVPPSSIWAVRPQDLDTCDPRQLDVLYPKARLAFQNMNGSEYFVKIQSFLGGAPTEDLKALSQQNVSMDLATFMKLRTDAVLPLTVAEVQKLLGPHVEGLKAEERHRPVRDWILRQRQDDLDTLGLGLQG
- test-name: ELISA, coated antigen; antibody 0.001 nM
Output spec: single numeric token, no unit.

Which OD450 is listed for S009-F1.59.1 human-murine chimeric antibody (antibody, human IgG1, kappa, V domains shown, Chimeric IgG1/kappa) VH: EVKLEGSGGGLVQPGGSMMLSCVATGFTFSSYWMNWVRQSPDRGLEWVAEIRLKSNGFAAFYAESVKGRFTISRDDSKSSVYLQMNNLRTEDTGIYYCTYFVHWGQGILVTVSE VL: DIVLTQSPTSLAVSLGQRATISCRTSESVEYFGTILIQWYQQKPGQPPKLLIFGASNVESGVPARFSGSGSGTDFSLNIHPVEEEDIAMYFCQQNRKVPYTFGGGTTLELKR ?
0.1

Next binder: S009-F1.56.1 human-murine chimeric antibody (antibody, human IgG1, kappa, V domains shown, Chimeric IgG1/kappa) VH: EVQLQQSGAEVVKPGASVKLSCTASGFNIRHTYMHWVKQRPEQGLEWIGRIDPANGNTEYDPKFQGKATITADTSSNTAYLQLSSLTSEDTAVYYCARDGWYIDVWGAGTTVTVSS VL: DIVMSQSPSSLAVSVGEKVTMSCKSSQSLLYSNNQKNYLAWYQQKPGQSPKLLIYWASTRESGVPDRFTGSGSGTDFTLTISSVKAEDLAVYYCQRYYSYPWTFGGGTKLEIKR
0.11

Next binder: S009-F1.57.1 human-murine chimeric antibody (antibody, human IgG1, kappa, V domains shown, Chimeric IgG1/kappa) VH: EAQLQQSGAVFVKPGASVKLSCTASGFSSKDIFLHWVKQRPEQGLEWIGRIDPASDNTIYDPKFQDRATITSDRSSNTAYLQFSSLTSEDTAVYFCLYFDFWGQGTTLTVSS VL: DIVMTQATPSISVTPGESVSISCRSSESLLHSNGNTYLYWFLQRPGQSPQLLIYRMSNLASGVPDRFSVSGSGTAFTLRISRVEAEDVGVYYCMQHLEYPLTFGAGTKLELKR
0.06

Next binder: S009-F1.62.9 human-murine chimeric antibody (antibody, human IgG1, kappa, V domains shown, Chimeric IgG1/kappa) VH: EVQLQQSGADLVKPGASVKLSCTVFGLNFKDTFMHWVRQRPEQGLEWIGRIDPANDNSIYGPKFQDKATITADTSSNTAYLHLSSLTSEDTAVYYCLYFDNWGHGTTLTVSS VL: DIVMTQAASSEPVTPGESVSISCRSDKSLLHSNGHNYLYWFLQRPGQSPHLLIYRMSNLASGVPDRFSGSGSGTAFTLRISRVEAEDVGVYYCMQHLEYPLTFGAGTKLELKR
0.11

Next binder: S009-F1.35.24 human-murine chimeric antibody (antibody, human IgG1, kappa, V domains shown, Chimeric IgG1/kappa) VH: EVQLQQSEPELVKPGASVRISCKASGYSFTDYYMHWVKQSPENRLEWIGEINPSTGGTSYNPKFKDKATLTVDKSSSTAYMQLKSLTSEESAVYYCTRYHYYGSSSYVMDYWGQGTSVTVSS VL: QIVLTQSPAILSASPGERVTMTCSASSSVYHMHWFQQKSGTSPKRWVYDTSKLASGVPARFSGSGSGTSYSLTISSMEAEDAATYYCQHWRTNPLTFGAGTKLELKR
0.09

Origin of the recorded values: patent US20250250357A1
